Please find below pIC50 measurements for Dipeptidyl peptidase 4 (Homo sapiens, UniProt P27487), combined from several publications.
# pIC50 is unitless: minus log10 of the molar concentration; print number only

Answered cases to consult:
INSERT INTO measurements (compound, value_measured) VALUES
  ('CCN([C@H]1CC[C@H]([C@H](N)Cc2cc(F)ccc2F)CC1)S(=O)(=O)c1c(C)noc1C', 7.42),
  ('CN([C@H]1CC[C@H]([C@H](N)Cc2cc(F)ccc2F)CC1)S(=O)(=O)c1cccnc1', 6.96);

Record for "Cc1ccc(-c2c(CN)c(CC(C)C)nc(C)c2C(=O)OC[C@H]2CC[C@H](C(=O)O)CC2)cc1" under target or system Dipeptidyl peptidase 4 (Homo sapiens, UniProt P27487): pIC50 reported as 7.10

Record for "N[C@H](C(=O)N1CCSC1)[C@H]1CC[C@H](NC(=O)c2cccc3ccccc23)CC1" under target or system Dipeptidyl peptidase 4 (Homo sapiens, UniProt P27487): pIC50 reported as 7.82

Record for "CN(C)C(=O)[C@@H](c1ccc(-c2cccc(C#N)c2)cc1)[C@H](N)C(=O)N1CC[C@H](F)C1" under target or system Dipeptidyl peptidase 4 (Homo sapiens, UniProt P27487): pIC50 reported as 7.37
